Hi there, I'd appreciate the recorded exchange rate with Pos peptide for every entry that follows.
biological target: T1, HLA-A*24:02 (human, biotinylated heavy chain); experiment: UV-induced peptide exchange, HLA class I ELISA; Pos peptide = 100%;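 further: Streptavidin-captured biotinylated HLA class I complexes detected by HRP-conjugated anti-human B2M antibody, absorbance readout of intact complex amount after exchange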
T1 construct: Conditional HLA class I complex whose UV-labile peptide is exchanged for the test peptide
Report the value in % with no unit label.

Entry under review: FFKRAAEGF (9-mer fragment of neoantigen P77 (AR-V3); synthetic peptide) [P77 9-mer FFKRAAEGF] . Reported exchange rate with Pos peptide?
1.7

What value of exchange rate with Pos peptide has been recorded for this entry: GVLRRLLCR (9-mer fragment of neoantigen P37; synthetic peptide) [P37 9-mer GVLRRLLCR]
-0.1

Find the recorded exchange rate with Pos peptide belonging to NSKMALNSL (9-mer fragment of neoantigen P35; synthetic peptide) [P35 9-mer NSKMALNSL] and report it.
0.2

The values you see were collected from patent US20230035403A1.
